Molecular target: KRAS G12S (Homo sapiens, UniProt P01116+P62937, G12S)
Sequence (P01116 1-169 isoform P01116-2 G12S limits assumed): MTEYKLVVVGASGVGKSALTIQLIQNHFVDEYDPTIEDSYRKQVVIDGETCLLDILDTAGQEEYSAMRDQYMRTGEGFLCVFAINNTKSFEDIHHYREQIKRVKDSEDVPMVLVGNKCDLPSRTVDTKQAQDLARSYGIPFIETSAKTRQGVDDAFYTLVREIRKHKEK
Sequence (P62937 whole entry): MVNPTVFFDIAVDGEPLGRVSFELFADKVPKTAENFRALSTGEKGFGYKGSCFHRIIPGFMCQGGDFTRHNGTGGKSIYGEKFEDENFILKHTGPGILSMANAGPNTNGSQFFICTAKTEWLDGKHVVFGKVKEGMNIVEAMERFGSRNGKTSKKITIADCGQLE
Assay: Disruption of BRAF RBD interaction with Ras (FRET / MOA assay, with Cyclophilin A)
Type: biochemical
Details: read-out: KRAS G12S FRET data, IC50
quantity: IC50

Here are 5 molecules together with their reported answers.
molecule	IC50
CCn1c(-c2cccnc2[C@H](C)OC)c2c3cc(ccc31)-c1cc(O)cc(c1)C[C@H](NC(=O)[C@H](C(C)C)N(C)C(=O)[C@@H]1CCNC1)C(=O)N1CCC[C@H](N1)C(=O)OCC(C)(C)C2	10 to 100 nM
CCn1c(-c2cnccc2COC)c2c3cc(ccc31)-c1cc(O)cc(c1)C[C@H](NC(=O)[C@H](C(C)C)N(C)C(=O)O[C@H]1CCOC1)C(=O)N1CCC[C@H](N1)C(=O)OCC(C)(C)C2	100 to 1000 nM
CCn1c(-c2cccnc2[C@H](C)OC)c2c3cc(ccc31)-c1csc(n1)C[C@H](NC(=O)[C@H](C(C)C)N(C)C(=O)N1CCCC13COC3)C(=O)N1CCC[C@H](N1)C(=O)OCC(C)(C)C2 (atropisomer, axis not shown)	100 to 1000 nM
C=CC(=O)N1CC[C@H](C(=O)N(C)[C@H](C(=O)N[C@H]2Cc3cc(O)cc(c3)-c3ccc4c(c3)c(c(-c3ccccc3[C@@H](C)OC)n4CC)CC(C)(C)COC(=O)[C@@H]3CCCN(N3)C2=O)C(C)C)C1	100 to 1000 nM
CCn1c(-c2cccnc2[C@H](C)OC)c2c3cc(ccc31)-c1csc(n1)C[C@H](NC(=O)[C@H](C(C)C)N(C)C(=O)N1CCN(C)C3(CC3)C1)C(=O)N1CCC[C@H](N1)C(=O)OCC(C)(C)C2	100 to 1000 nM

Incoming: Record request: IC50 value, item CCn1c(-c2cc(N3CCN(C)CC3)cnc2[C@H](C)OC)c2c3cc(ccc31)-c1csc(n1)C[C@H](NC(=O)[C@H](C(C)C)N(C)C(=O)N1CC(N(C)C)C1)C(=O)N1CCC[C@H](N1)C(=O)OCC(C)(C)C2 (atropisomer, axis not shown)
Outgoing: 100 to 1000 nM

Incoming: Also, CCn1c(-c2cccnc2[C@H](C)OC)c2c3cc(ccc31)-c1csc(n1)C[C@H](NC(=O)[C@H](C(C)C)N(C)C(=O)N(C)C1CN(C(=O)/C=C/C(C)(C)O)C1)C(=O)N1CCC[C@H](N1)C(=O)OCC(C)(C)C2 (atropisomer, axis not shown) please.
Outgoing: 100 to 1000 nM

Incoming: Also, CCn1c(-c2cc(N3CCN(C)CC3)cnc2[C@H](C)OC)c2c3cc(ccc31)-c1csc(n1)C[C@H](NC(=O)[C@H](C(C)C)N(C)C(=O)N1CCOCC1)C(=O)N1CCC[C@H](N1)C(=O)OCC(C)(C)C2 (atropisomer, axis not shown) please.
Outgoing: 10 to 100 nM

* * *

Tested on: Capan-1 (K-Ras G12V)
Test: CellTiter-Glo cell viability assay, 5-day treatment
Type: cell-based
Settings: Homo sapiens, CAPAN-1, 120 h, 5-day treatment; read-out: Capan-1 Cell Viability assay data (K-Ras G12V, IC50)
quantity: IC50

compound	IC50
CCn1c(-c2cccnc2[C@H](C)OC)c2c3cc(ccc31)-c1csc(n1)C[C@H](NC(=O)[C@H](C(C)C)N(C)C(=O)N1CCN3CCOC[C@@H]3C1)C(=O)N1CCC[C@H](N1)C(=O)OCC(C)(C)C2 [Example A547]	10 to 100 nM

Consider the record given below.
Incoming: Record request: IC50 value, item CCn1c(-c2cccnc2[C@H](C)OC)c2c3cc(ccc31)-c1cc(O)cc(c1)C[C@H](NC(=O)[C@H](C(C)C)N(C)C(=O)[C@H]1CCN(C)C1)C(=O)N1CCC[C@H](N1)C(=O)OCC(C)(C)C2 [Example A100]
Outgoing: 1000 to 10000 nM

Attribution: patent US20230233569A1
